Quick reference: growth inhibition of the listed items.
# test details: NCI Yeast Anticancer Drug Screen. Data for the sgs1 mgt1 strain (AID 161);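 note: 0% = growth of cultures given vehicle only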
# assay conditions: S. cerevisiae sgs1 mgt1 strain, at 50.0 µM, hits give high values
This is part of a sample that, as a whole, favours compounds with a hit. Of some 79,000 tested, about 15% had one in any assay. Activity calls are given as the source filed them. Cut-off read from the data, not from the text of the source: active = growth inhibition above about 70%; inactive = the rest.

[
  {
    "compound": "CC[N+](C)(CC)CCOc1ccc(Cc2nc3c([nH]2)c(=O)n(C)c(=O)n3C)cc1",
    "growth inhibition": "13.8% (inactive)"
  },
  {
    "compound": "Fc1ccc(CC(F)F)cc1",
    "growth inhibition": "14.4% (inactive)"
  }
]

Item COc1ccc(S(=O)(=O)O)cc1NC(=O)CC(=O)c1cccc([N+](=O)[O-])c1 has what recorded growth inhibition?
9.2% (inactive)

Which growth inhibition is reported for this compound? CCOC(=O)Cc1ccccn1
-37.7% (inactive)

Entry CC(C)(C)OC(=O)NC(CSSCC(NC(=O)OC(C)(C)C)C(=O)O)C(=O)O (stereo unspecified) : reported growth inhibition = ?
-10.7% (inactive)

Entry under review: CCN(CC)C(=O)C1CC=CCC1C(=O)O (stereo unspecified) . Reported growth inhibition?
23.9% (inactive)

Data provenance is PubChem BioAssay (NCI).
